Recorded values, source patent US9969688B2.

Please go through the items and note down their Jmax (maximum skin permeation rate).
Experiment: Evaluation test of skin permeability (Franz diffusion cell)
Assay type: in vitro ADME
Conditions: hairless mouse skin, 1 w/w % in dimethyl sulfoxide, 100 μL, 32° C.
Give bare numbers, in μg/cm^2/hr.

input: Give its Jmax (maximum skin permeation rate) value. Item: O=C(c1ccc(OC(F)F)c(OCC2CC2)c1)N(CCCO)c1c(Cl)cncc1Cl
output: 8.5

input: Give its Jmax (maximum skin permeation rate) value. Item: N#CCN(C(=O)c1ccc(OC(F)F)c(OCC2CC2)c1)c1c(Cl)cncc1Cl
output: 1.2

input: Give its Jmax (maximum skin permeation rate) value. Item: NC(=O)CN(C(=O)c1ccc(OC(F)F)c(OCC2CC2)c1)c1c(Cl)cncc1Cl [Reference Example 1, reference compound]
output: 0.9

input: Give its Jmax (maximum skin permeation rate) value. Item: CN(C(=O)c1ccc(OC(F)F)c(OCC2CC2)c1)c1c(Cl)cncc1Cl
output: 3.2

input: Give its Jmax (maximum skin permeation rate) value. Item: O=C(Nc1c(Cl)cncc1Cl)c1ccc(OC(F)F)c(OCC2CC2)c1 [Comparative Example 1, reference compound]
output: 0.0

Provide Jmax (maximum skin permeation rate) for all items below, preserving their order.
1. COCN(C(=O)c1ccc(OC(F)F)c(OCC2CC2)c1)c1c(Cl)cncc1Cl
2. O=C(O)CN(C(=O)c1ccc(OC(F)F)c(OCC2CC2)c1)c1c(Cl)cncc1Cl [Reference Example 2, reference compound]
3. O=C(c1ccc(OC(F)F)c(OCC2CC2)c1)N(CCO)c1c(Cl)cncc1Cl

output:
1.2
9.5
10.7
